Attribute: β-Galactosidase Activity, Cultured Without ATC
- System: tet operator sequence
- Measurement notes: β-galactosidase activity of a tetracycline-regulated promoter in transformed E. coli with revTetR, in the presence and absence of anhydrotetracycline (atc)
- Assay type: cell-based, Escherichia coli
- Conditions: RevTetR isolate cultured in the absence of anhydrotetracycline (ATC)

Consider the following illustrative entries.
[
  {
    "Molecule": "TetRrev25/43: revTetR(BD) L17F E19- G24G (protein, Modified tetracycline repressor, revTetR(BD) L17F E19- G24G) MSRLDKSKVINSALELFNVGIEGLTTRKLAQKLGVEQPTLYWHVKNKRALLDALAVEILARHHDYSLPAAGESWQSFLRNNAMSFRRALLRYRDGAKVHLGTRPDEKQYDTVETQLRFMTENGFSLRDGLYAISAVSHFTLGAVLEQQEHTAALTDRPAAPDENLPPLLREALQIMDSDDGEQAFLHGLESLIRGFEVQLTALLQIV",
    "Data value": 99.1241
  },
  {
    "Molecule": "TetRrevAF2/5: revTetR(BD) L14R E!9E D95H L101P (protein, Modified tetracycline repressor, revTetR(BD) L14R E!9E D95H L101P) MSRLDKSKVINSARELLNEVGIEGLTTRKLAQKLGVEQPTLYWHVKNKRALLDALAVEILARHHDYSLPAAGESWQSFLRNNAMSFRRALLRYRHGAKVHPGTRPDEKQYDTVETQLRFMTENGFSLRDGLYAISAVSHFTLGAVLEQQEHTAALTDRPAAPDENLPPLLREALQIMDSDDGEQAFLHGLESLIRGFEVQLTALLQIV",
    "Data value": 97.8373
  }
]

Read the next record carefully.
IN: Entry TetRrevAF5/5: revTetR(BD) L14V L17F V20A I22M L25F D95H (protein, Modified tetracycline repressor, revTetR(BD) L14V L17F V20A I22M L25F D95H) MSRLDKSKVINSAVELFNEAGMEGFTTRKLAQKLGVEQPTLYWHVKNKRALLDALAVEILARHHDYSLPAAGESWQSFLRNNAMSFRRALLRYRHGAKVHLGTRPDEKQYDTVETQLRFMTENGFSLRDGLYAISAVSHFTLGAVLEQQEHTAALTDRPAAPDENLPPLLREALQIMDSDDGEQAFLHGLESLIRGFEVQLTALLQIV needs its β-Galactosidase Activity, Cultured Without ATC filled in; supply it.
OUT: 100.546
